Assay Summary: Pharmacokinetics of halofantrine enantiomers after oral gavage of proliposomal or control suspension
Format: in vivo, Sprague-Dawley rats
Conditions: Sprague-Dawley, rat, plasma, po, 7 mg/kg, Liposome: enteric coated proliposomal formulation in 0.78% methylcellulose, 7 mg/kg oral gavage, rats, AUC0-24, mean±SD; read-out: AUC
Reported Metric: AUC (ng·h/mL)

                                   compound  reported_metric  experimental_result
0  CCCCN(CCCC)CCC(O)c1cc2c(Cl)cc(Cl)cc2c2cc(C(F)(F)F)ccc12 (single isomer, unassigned; (-)) [(−)-HF, halofantrine]              AUC                 2600

###

Assay Summary: Pharmacokinetics of halofantrine enantiomers after oral gavage of proliposomal or control suspension
Assay type: in vivo, Sprague-Dawley rats
Conditions: Sprague-Dawley, rat, plasma, po, 7 mg/kg, Liposome: enteric coated proliposomal formulation, 7 mg/kg oral gavage, rats, mean±SD; read-out: Tmax
Reported Metric: Tmax (h)

>>> print(df.to_string())
                                   compound  reported_metric  experimental_result
0  CCCCN(CCCC)CCC(O)c1cc2c(Cl)cc(Cl)cc2c2cc(C(F)(F)F)ccc12 (single isomer, unassigned; (-)) [(−)-HF, halofantrine]             Tmax                    4

###

Assay Summary: Pharmacokinetics of halofantrine enantiomers after oral gavage of proliposomal or control suspension
Assay type: in vivo, Sprague-Dawley rats
Conditions: Sprague-Dawley, rat, plasma, po, 7 mg/kg, Control: halofantrine powder in 1% methylcellulose, 7 mg/kg oral gavage, rats, mean±SD; read-out: Cmax
Reported Metric: Cmax

>>> df
                                   compound  experimental_result
0  CCCCN(CCCC)CCC(O)c1cc2c(Cl)cc(Cl)cc2c2cc(C(F)(F)F)ccc12 (single isomer, unassigned; (-)) [(−)-HF, halofantrine]            196 ng/mL

###

Assay Summary: Pharmacokinetics of halofantrine enantiomers after oral gavage of proliposomal or control suspension
Type: in vivo, Sprague-Dawley rats
Conditions: Sprague-Dawley, rat, plasma, po, 7 mg/kg, Control: halofantrine powder in 1% methylcellulose, 7 mg/kg oral gavage, rats, mean±SD; read-out: Tmax
Reported Metric: Tmax

                                   compound  reported_metric  experimental_result
0  CCCCN(CCCC)CCC(O)c1cc2c(Cl)cc(Cl)cc2c2cc(C(F)(F)F)ccc12 (single isomer, unassigned; (-)) [(−)-HF, halofantrine]             Tmax                4.6 h

###

Assay Summary: Pharmacokinetics of halofantrine enantiomers after oral gavage of proliposomal or control suspension
Format: in vivo, Sprague-Dawley rats
Conditions: Sprague-Dawley, rat, plasma, po, 7 mg/kg, Liposome: enteric coated proliposomal formulation, 7 mg/kg oral gavage, rats, mean±SD; read-out: Cmax
Protocol: The pharmacokinetic parameters of the enteric coated proliposomal formulation of halofantrine were evaluated as follows. The proliposomal product was prepared as a suspension in 0.78% methylcellulose. A non-liposomal suspension formulation (control) was prepared by dispersing halofantrine powder in 1% methylcellulose. Sprague-Dawley rats were cannulated at the right jugular vein under halothane anesthesia. […]
Reported Metric: Cmax (ng/mL)

In [3]: df
Out[3]:
                                   molecule  quantity_unit  experimental_result
0  CCCCN(CCCC)CCC(O)c1cc2c(Cl)cc(Cl)cc2c2cc(C(F)(F)F)ccc12 (single isomer, unassigned; (-)) [(−)-HF, halofantrine]          ng/mL                  360
